Target: T1, Sortilin SORTECDBAP_hB45678 (human/tetraodon chimera)
T1 construct: Shuffle construct: chimeric human/tetraodon Sortilin ECD with BAP tag
T1 chain: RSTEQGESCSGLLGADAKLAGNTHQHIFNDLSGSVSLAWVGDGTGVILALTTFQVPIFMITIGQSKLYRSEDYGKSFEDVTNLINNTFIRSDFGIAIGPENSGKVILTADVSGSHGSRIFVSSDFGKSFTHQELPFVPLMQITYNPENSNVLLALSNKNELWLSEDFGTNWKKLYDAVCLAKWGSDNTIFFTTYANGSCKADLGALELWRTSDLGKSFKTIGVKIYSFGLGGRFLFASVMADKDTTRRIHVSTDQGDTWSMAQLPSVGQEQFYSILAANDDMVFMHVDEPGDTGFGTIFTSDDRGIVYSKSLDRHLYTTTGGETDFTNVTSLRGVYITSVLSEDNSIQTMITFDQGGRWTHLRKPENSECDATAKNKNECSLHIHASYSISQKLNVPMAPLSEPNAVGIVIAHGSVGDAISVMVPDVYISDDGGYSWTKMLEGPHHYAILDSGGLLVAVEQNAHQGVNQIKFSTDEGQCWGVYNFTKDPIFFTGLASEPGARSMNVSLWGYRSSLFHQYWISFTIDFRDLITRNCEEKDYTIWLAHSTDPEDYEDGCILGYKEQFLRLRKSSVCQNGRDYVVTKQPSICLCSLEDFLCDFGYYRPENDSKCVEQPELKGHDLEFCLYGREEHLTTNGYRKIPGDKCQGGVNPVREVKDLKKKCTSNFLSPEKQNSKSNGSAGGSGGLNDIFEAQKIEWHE
Assay: BLI (Octet384RED)
Measured Attribute: EC50 (ng/mL)
Report the figure in ng/mL without appending any unit label.

Per the record, Antibody 6003-900 (antibody, human IgG1, V domains shown, also called antibody 900; Sortilin human antibody 900) VH: EVQLVESGGGLVKPGGSLRLSCAASGFTFSSYSMNWVRQAPGKGLEWVSSISSSSSYIYYADSVKGRFTISRDNAKNSLYLQMNSLRAEDTAVYYCARRGSGSYDAFDIWGQGTMVTVSS VL: EIVLTQSPDFQSVTPKEKVTITCRASQSIGYSLHWYQQKPDQSPKLLIKYASQSFSGVPSRFSGSGSGTDFTLTINSLEAEDAAAYYCHQSSSLPLTFGGGTKVEIK has EC50 of 1.19

Per the record, Antibody 6003-822 (antibody, human IgG1, V domains shown) VH: EVQLLESGGGLVQPGESLTLSCAASGFTLSSYAMSWVRQAPGKGLEWVSSISGRLGTTYYAASVKGRFTISRDNSKNTLYLQMNSLRAEDTAIYSCAKAPSDAFDIWGQGTMVTVSS VL: EIVLTQSPATLSLSPGERATLSCRASQSVSSYLAWYQQKPGQAPRLLIYDASNRATGIPARFSGSGSGTDFTLTISSLEPEDFAVYYCQQRSNWPIFTFGPGTKVDIK has EC50 of 2.08

Per the record, Antibody 6003-886 (antibody, human IgG1, V domains shown) VH: QVQLVQSGAEVKKPGASVKVSCKASGYTFTKYGISWVRQAPGQGLEWMGWISAYNGNTNYAQKLQDRVTMTTDTFTSTAYMELRSLRSDDTAVYFCARDGPLTGDFTFYGMDVWGQGTTVTVSS VL: EIVLTQSPATLSLSPGERATLSCRASQSVSSYLAWYQQKPGQAPRLLIYDASNRATGIPARFSGSGSGTDFTLTISSLEPEDFAVYYCQQRSNWPPFTFGPGTKVDIK has EC50 of 3.45

Per the record, IgG1-6003-972 (antibody, V domains shown, also called Antibody 6003-972) VH: QVQLVESGGGVVQPGRSLRLSCAASGFTFSDYAMHWVRRAPGKGLEWVVVISYDGSNKYYADSVKGRFTISRDNSKNTLYLQMNSLRAEDTAVYYCARDPSGGWYFDLWGRGTLVTVSS VL: EIVLTQSPATLSLSPGERATLSCRASQSVSSYLAWYQQKPGQAPRLLIYDASNRATGIPARFSGSGSGTDFTLTISSLEPEDFALYYCQQRSHWPRTFGQGTKVEIK has EC50 of 2.57

Per the record, Antibody 6003-799 (antibody, human IgG1, V domains shown) VH: QVQLVESGGGVVQPGRSLRLSCAASGFTFSSYGMHWVRQAPGKGLEWVTVISYDGSNKYYADSVKGRFTISRDNSKNTLYLQMNSLRAEDTAVYYCAKLTGDAFDIWGQGTMVTVSS VL: EIVLTQSPATLSLSPGERATLSCRASQSVSSYLVWYQQKPGQAPRLLIYHASNRATGIPARFSGSGSGTDFTLTISSLEPEDFAVYYCQQRSNWPRITFGQGTRLEIK has EC50 of 4.16
